Target: TrkB (Homo sapiens (Human), UniProt Q16620 32-430)
Sequence (Q16620 32-430 limits assumed): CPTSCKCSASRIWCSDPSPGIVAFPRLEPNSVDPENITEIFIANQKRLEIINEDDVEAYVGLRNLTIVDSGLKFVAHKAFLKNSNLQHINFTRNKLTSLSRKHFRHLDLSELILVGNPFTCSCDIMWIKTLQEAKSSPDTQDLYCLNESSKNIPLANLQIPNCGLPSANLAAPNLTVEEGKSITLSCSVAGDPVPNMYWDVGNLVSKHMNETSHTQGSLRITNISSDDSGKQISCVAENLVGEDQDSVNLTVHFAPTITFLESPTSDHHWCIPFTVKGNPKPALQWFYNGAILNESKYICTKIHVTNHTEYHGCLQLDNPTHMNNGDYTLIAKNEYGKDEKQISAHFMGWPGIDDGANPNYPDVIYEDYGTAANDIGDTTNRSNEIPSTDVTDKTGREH
Experiment: koff of Fab at 25 C; T1/2=Log2/koff
readout label: T1/2

[[record]]
binder = "3-H8 (Fab, V domains shown, Fab) VH: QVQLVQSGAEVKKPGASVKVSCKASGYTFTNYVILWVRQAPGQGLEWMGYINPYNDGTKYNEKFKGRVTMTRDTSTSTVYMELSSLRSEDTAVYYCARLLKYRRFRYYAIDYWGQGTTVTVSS VL: DIQMTQSPSSLSASVGDRVTITCRASENVYSNLAWYQQKPGKAPKLLIYAASNLQSGVPSRFSGSGSGTDFTFTISSLQPEDIATYYCQHFWYSPFVFGQGTKLEIK"
recorded_measurement = "0.81 min"

[[record]]
binder = "13-C6 (Fab, V domains shown, Fab) VH: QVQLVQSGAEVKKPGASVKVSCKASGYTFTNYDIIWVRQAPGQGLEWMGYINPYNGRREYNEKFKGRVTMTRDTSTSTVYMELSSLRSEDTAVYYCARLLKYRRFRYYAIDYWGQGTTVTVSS VL: DIQMTQSPSSLSASVGDRVTITCRASEPVYSNVAWYQQKPGKAPKLLIYAASNLQSGVPSRFSGSGSGTDFTFTISSLQPEDIATYYCQHFWGSPFTFGQGTKLEIK"
recorded_measurement = "4.8 min"

